Taken from patent US20120238488A1.

Tested on: OVCAR3 (Ovary)
Assay Comment: SRB assay, OVCAR3
Format: cell-based, human
Measurement Conditions: Homo sapiens, OVCAR-3, 48 h, read-out: LC50
Description: SRB assays were performed according to standard National Cancer Institute Guidelines. […] Following drug addition, each culture was incubated for forty-eight hours. […] After staining, the bound stain was solubilized and the absorbance was read on an automated plate reader at a wavelength of 515 nm. […] Three dose response parameters were calculated for each experimental agent. […] The drug concentration resulting in total growth inhibition (TGI) was calculated from Ti=Tz. […]
Measured Property: CC50 (µM)
Give the quantity in µM, number only.

Molecule: C[C@]12CCC(=NOC3CCNC3)CC1CCC1C2CC[C@]2(C)C(=O)CCC12 (stereo partly drawn) [Compound 56]
CC50, µM: 0.17

Lab book: CC50 of C[C@]12CCC(=NOCCN)CC1CCC1C2CC[C@]2(C)C(=O)CCC12 (stereo partly drawn) [Compound 1] noted as 0.984

Looking up C[C@]12CCC(=NOC3CCNC3)C=C1CCC1C2CC[C@]2(C)C(=O)CCC12 (stereo partly drawn) [Compound 61] , I found its CC50 recorded as 6.12

Value of measured CC50 for the entry C[C@]12CCC(=NOCCN)C=C1CCC1C2CC[C@]2(C)C(=O)CCC12 (stereo partly drawn) [Compound 12] : 88.8

Please fill in: CC50 reported for C[C@H]1O[C@@H](O[C@H]2[C@@H](O)C[C@H](O[C@H]3[C@@H](O)C[C@H](O[C@H]4CC[C@@]5(C)[C@H](CC[C@@H]6[C@@H]5C[C@@H](O)[C@]5(C)[C@@H](C7=CC(=O)OC7)CC[C@]65O)C4)O[C@@H]3C)O[C@@H]2C)C[C@H](O)[C@@H]1O [Digoxin, reference compound] = 22.2
